molecular target: BRD4-ET domain (for ITC) (UniProt O60885 600-678); experiment: ITC
value.kind: Kd (nM)
A number alone suffices; assume nM.

// query # get_value(readout='Kd', item= His6MBP-ASXL1^537-587 (domain or fragment) EKKPRLEDRQSFRNTIESVHTEKPQPTKEEPKVPPIRIQLSRIKPPWVVKG )
// result 535
